// provenance: PubChem BioAssay (NCI)

- Test system: SK-OV-3 ovarian
- protocol.notes: NCI tumour cell line growth inhibition, 48 h

molecule	TGI
C=CCN1C(=O)C=C(c2ccccc2)n2ncc3cccc1c32	> 100 µM
C=C1c2ccccc2C(=O)c2c1c1c(C(=O)OC)c(O)ccc1n2Cc1ccccc1	1.35 µM
O=c1[nH]c2cc([N+](=O)[O-])ccc2nc1/C(=N/Nc1ccccc1)C(O)c1ccccc1Cl (configuration not stated)	> 100 µM
CC1=NN(C(=O)c2ccccc2O)C(=O)/C1=C/c1ccco1	> 82 µM
CCC(C)(CC(C)(C)C(=O)NCC(=O)NC(Cc1ccccc1)C(=O)NC(Cc1ccccc1)C(=O)NCC(=O)NC1CC(OC2CC(O)(C(=O)CO)Cc3c(O)c4c(c(O)c32)C(=O)c2c(OC)cccc2C4=O)OC(C)C1O)C(=O)NCC(C)O (configuration not stated)	> 150 µg/mL
[N-]=[N+]=Nc1ccccc1C(=O)N1C(=O)c2ccccc2C(=O)N(C(=O)c2ccccc2N=[N+]=[N-])c2ccccc21	> 100 µM
CCCCCCCCCCCCCCCCCCOc1ccccc1CC(=O)OCC[N+]1(C)CCCCC1	38.2 µM
O=C(NC1=NCC(CN2CCN(c3ccccc3)CC2)O1)Nc1ccccc1 (configuration not stated)	> 100 µM
O=c1oc2ccc3ccccc3c2cc1-c1cn2ccccc2n1	> 100 µM
O=C([O-])C[n+]1ccccc1	> 100 µM
COc1ccc(Nc2nnc(-c3nsc4ccccc34)s2)cc1	19 µM
O=C(CCCCCCCCC(=O)N/N=C\c1ccccc1O)N/N=C\c1ccccc1O	15.6 µM
CCS(CC)(CC)CC1CCCC2=CCC(P(=O)(c3ccccc3)c3ccccc3)CC21 (configuration not stated)	28.7 µM
CSc1nc(C#N)c(/N=C\N(C)C)n1C	> 100 µM
C=CCOc1cccc(C2(O)c3ccccc3C3=NCCCN32)c1 (configuration not stated)	> 100 µM
CCOC(=O)c1cccn1S(=O)(=O)c1cc(Cl)ccc1NC(=O)CC	> 100 µM
CCOC(=O)c1cnc2oc3ccc(O)cc3c2c1C	> 100 µM
O=C(Nc1ccc(Cl)cc1)c1cc2cc(N=Nc3ccccc3Cl)ccc2oc1=O	84 µM
OC1(c2cccs2)c2cccc(Cl)c2C(O)(c2cccs2)c2c(Cl)cccc21 (configuration not stated)	> 100 µM
CCOC(=O)N1CCN(C=S)CC1	> 100 µM
CNc1ccc(C(=O)CC(O)CCC(C)C2OC(=O)CC(O)CC(=O)CC(O)CC(O)CC(O)CC(O)CC3(O)CC(O)C(C(=O)N4CCOCC4)C(CC(OC4OC(C)C(O)C(N)C4O)/C=C/C=C/C=C/C=C\C=C/C=C/C=C/C2C)O3)cc1 (configuration not stated)	> 100 µM
C=C(C)C(=O)Nc1ccc(NC(C)C)cc1	> 100 µM
Cc1ccc(Nc2n[nH]c(=S)s2)cc1C	> 100 µM
Cc1nn2c(/C=C3\C(=O)Nc4ccc(Cl)cc43)c(C)nc2s1	> 100 µM
O=C(O)C(SC(=S)c1ccc(C(=S)SC(C(=O)O)c2ccccc2)cc1)c1ccccc1 (configuration not stated)	> 100 µM
COc1ccc(-c2cc(=O)[nH]c3c(OC)c4ccccc4c(OC)c23)cc1	> 100 µM
COc1ccc(-c2c[nH]c(C(=O)O)c2-c2cc(OC)c(OC)c(OC)c2)cc1	> 100 µM
